# Run Description: Kinetic solubility pH 7.4
# Assay type: physicochemical
# Measurement Setup: pH 7.4, aqueous buffer, kinetic from dmso stock
Assay Readout: solubility kinetic (µM)
State just the number; it will be interpreted in µM.

Identify measured solubility kinetic corresponding to CCOC(=O)C1C(=O)c2ccc(C(=O)c3ccc4c(c3)C(=O)C(C(=O)OCC)C4=O)cc2C1=O (centres unmarked)
88.2

###

# Target: human PF4 (Homo sapiens)
# Construct: PF4 is a 70 amino acid, lysine-rich 7.8 kDa platelet-specific protein; made in house; host or cells: Escherichia coli BL21DE3 pLysS (pT7-7) and/or Drosophila S2 cells
# Sequence (P02776 32-101): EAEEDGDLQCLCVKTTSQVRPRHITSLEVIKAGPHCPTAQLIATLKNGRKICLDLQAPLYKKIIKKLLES
# Run Description: Inhibition of PF4 tetramer formation (BS3 cross-linking, SDS-PAGE)
# Type: biochemical
# Measurement Setup: 10 μM inhibitor (column A); read-out: % inhibition of PF4 tetramer formation at single concentration of inhibitor
Assay Readout: inhibition at 10 µM (%)
State just the number; it will be interpreted in %.

O=C(c1ccc2c(c1)C(=O)C(C(=O)CC1CCCC1)C2=O)c1ccc2c(c1)C(=O)C(C(=O)CC1CCCC1)C2=O (stereo not drawn) ... 68
O=C(c1ccc2c(c1)C(=O)C(C(=O)NCCOCC(F)(F)F)C2=O)c1ccc2c(c1)C(=O)C(C(=O)NCCOCC(F)(F)F)C2=O (stereo not drawn) ... 20
COc1ccc(NC(=O)C2C(=O)c3ccc(S(=O)(=O)c4ccc5c(c4)C(=O)C(C(=O)Nc4ccc(OC)cc4OC)C5=O)cc3C2=O)c(OC)c1 (stereo not drawn) ... 62
O=C(c1ccc2c(c1)C(=O)C(C(=O)NCc1ccco1)C2=O)c1ccc2c(c1)C(=O)C(C(=O)NCc1ccco1)C2=O (stereo not drawn) ... 56
CC(C)(C)OC(=O)N1CCC[C@@H]1C(=O)C1C(=O)c2ccc(S(=O)(=O)c3ccc4c(c3)C(=O)C(C(=O)[C@H]3CCCN3C(=O)OC(C)(C)C)C4=O)cc2C1=O (stereo partly drawn) ... 94
CC(=O)c1cccc(NC(=O)C2C(=O)c3ccc(C(=O)c4ccc5c(c4)C(=O)C(C(=O)Nc4cccc(C(C)=O)c4)C5=O)cc3C2=O)c1 (stereo not drawn) ... 77
O=C(O)CCNC(=O)C1C(=O)c2ccc(C(=O)c3ccc4c(c3)C(=O)C(C(=O)NCCC(=O)O)C4=O)cc2C1=O (stereo not drawn) ... 91
C[C@@H](C(=O)C1C(=O)c2ccc(C(=O)c3ccc4c(c3)C(=O)C(C(=O)[C@H](C)N(C)C(=O)OC(C)(C)C)C4=O)cc2C1=O)N(C)C(=O)OC(C)(C)C (stereo partly drawn) ... 100
O=C1CC(=O)c2cc(C(c3ccc4c(c3)C(=O)CC4=O)(C(F)(F)F)C(F)(F)F)ccc21 ... 74
CC(C)(C)OC(=O)N1CCC[C@H]1C(=O)C1C(=O)c2ccc(Oc3ccc4c(c3)C(=O)C(C(=O)[C@@H]3CCCN3C(=O)OC(C)(C)C)C4=O)cc2C1=O (stereo partly drawn) ... 40

Identify measured inhibition at 10 µM corresponding to O=C(c1ccc2c(c1)C(=O)C(C(=O)[C@@H]1CCN1)C2=O)c1ccc2c(c1)C(=O)C(C(=O)[C@@H]1CCN1)C2=O (stereo partly drawn)
21

Identify measured inhibition at 10 µM corresponding to CC(C)C(=O)NCC(=O)C1C(=O)c2ccc(C(=O)c3ccc4c(c3)C(=O)C(C(=O)CNC(=O)C(C)C)C4=O)cc2C1=O (stereo not drawn)
90

###

# Target: human PF4 (Homo sapiens)
# Construct: PF4 is a 70 amino acid, lysine-rich 7.8 kDa platelet-specific protein; made in house; host or cells: Escherichia coli BL21DE3 pLysS (pT7-7) and/or Drosophila S2 cells
# Sequence (P02776 32-101): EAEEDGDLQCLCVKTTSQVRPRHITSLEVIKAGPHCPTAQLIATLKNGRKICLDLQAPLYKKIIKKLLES
# Run Description: Inhibition of PF4 tetramer formation (BS3 cross-linking, SDS-PAGE)
# Type: biochemical
# Measurement Setup: read-out: IC50 of PF4 tetramer formation inhibition
Assay Readout: IC50 (µM)
State just the number; it will be interpreted in µM.

Solved cases (3 shown):
O=C1c2ccc(S(=O)(=O)c3ccc4c(c3)C(=O)C(C(=O)C3CCN(C(=O)OCc5ccccc5)C3)C4=O)cc2C(=O)C1C(=O)C1CCN(C(=O)OCc2ccccc2)C1 (centres unmarked) ... 5.1
CN(CC(=O)C1C(=O)c2ccc(C(=O)c3ccc4c(c3)C(=O)C(C(=O)CN(C)C(=O)OC(C)(C)C)C4=O)cc2C1=O)C(=O)OC(C)(C)C (centres unmarked) ... 9.83
C[C@@H](C(=O)C1C(=O)c2ccc(C(=O)c3ccc4c(c3)C(=O)C(C(=O)[C@H](C)N(C)C(=O)OC(C)(C)C)C4=O)cc2C1=O)N(C)C(=O)OC(C)(C)C (some centres unmarked) ... 2.1

Identify measured IC50 corresponding to CC(C)(C)OC(=O)N[C@@H](C(=O)C1C(=O)c2ccc(C(=O)c3ccc4c(c3)C(=O)C(C(=O)[C@H](NC(=O)OC(C)(C)C)c3ccccc3)C4=O)cc2C1=O)c1ccccc1 (some centres unmarked)
3.4

Identify measured IC50 corresponding to CO[C@@H]1O[C@H](C(=O)C2C(=O)c3ccc(S(=O)(=O)c4ccc5c(c4)C(=O)C(C(=O)[C@H]4O[C@@H](OC)[C@H]6OC(C)(C)O[C@@H]64)C5=O)cc3C2=O)[C@H]2OC(C)(C)O[C@H]12 (some centres unmarked)
2.5

###

# Target: human PF4 (Homo sapiens)
# Construct: PF4 is a 70 amino acid, lysine-rich 7.8 kDa platelet-specific protein; made in house; host or cells: Escherichia coli BL21DE3 pLysS (pT7-7) and/or Drosophila S2 cells
# Sequence (P02776 32-101): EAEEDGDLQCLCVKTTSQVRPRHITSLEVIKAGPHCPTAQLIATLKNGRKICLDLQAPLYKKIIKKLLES
# Run Description: Inhibition of PF4 tetramer formation (BS3 cross-linking, SDS-PAGE)
# Format: biochemical
# Measurement Setup: 3 μM inhibitor (column A); read-out: % inhibition of PF4 tetramer formation at single concentration of inhibitor
inhibition at 3 µM by entry:
State just the number; it will be interpreted in %.

Solved cases (2 shown):
O=C1c2ccc(Oc3ccc4c(c3)C(=O)C(C(=O)C3CCCS3(=O)=O)C4=O)cc2C(=O)C1C(=O)C1CCCS1(=O)=O (stereo not drawn) ... 6
O=C(c1ccc2c(c1)C(=O)C(C(=O)NC1CCS(=O)(=O)C1)C2=O)c1ccc2c(c1)C(=O)C(C(=O)NC1CCS(=O)(=O)C1)C2=O (stereo not drawn) ... 34

// switching to the query compound
Identify measured inhibition at 3 µM corresponding to CO[C@@H](C)C(=O)C1C(=O)c2ccc(C(=O)c3ccc4c(c3)C(=O)C(C(=O)[C@H](C)OC)C4=O)cc2C1=O (stereo partly drawn)
25

###

# Target: P450 2C9 (Homo sapiens, UniProt P11712)
# Sequence (P11712 whole entry): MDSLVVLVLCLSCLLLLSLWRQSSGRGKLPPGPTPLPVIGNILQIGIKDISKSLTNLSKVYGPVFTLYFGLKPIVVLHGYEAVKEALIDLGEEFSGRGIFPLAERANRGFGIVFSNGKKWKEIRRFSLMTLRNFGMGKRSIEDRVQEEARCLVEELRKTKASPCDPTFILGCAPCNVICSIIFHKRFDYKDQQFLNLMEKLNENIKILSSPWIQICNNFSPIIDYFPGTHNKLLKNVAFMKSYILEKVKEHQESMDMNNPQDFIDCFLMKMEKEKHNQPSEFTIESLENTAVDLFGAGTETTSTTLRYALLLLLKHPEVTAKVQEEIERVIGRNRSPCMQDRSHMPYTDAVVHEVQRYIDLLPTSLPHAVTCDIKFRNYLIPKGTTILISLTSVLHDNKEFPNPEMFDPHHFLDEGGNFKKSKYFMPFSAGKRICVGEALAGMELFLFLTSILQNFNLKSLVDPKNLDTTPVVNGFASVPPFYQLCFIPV
# Run Description: P450 inhibition 2C9
# Format: in vitro ADME
# Measurement Setup: read-out: P450 Inhibition IC50 2C9
Assay Readout: pIC50
// pIC50 is dimensionless: -log10 of concentration (M)

Identify measured pIC50 corresponding to CCOC(=O)C1C(=O)c2ccc(C(=O)c3ccc4c(c3)C(=O)C(C(=O)OCC)C4=O)cc2C1=O (stereo not shown)
4.78

###

# Target: human PF4 (Homo sapiens, UniProt P02776)
# Construct: PF4 is a 70 amino acid, lysine-rich 7.8 kDa platelet-specific protein; made in house; host or cells: Escherichia coli BL21DE3 pLysS (pT7-7) and/or Drosophila S2 cells
# Run Description: Inhibition of PF4 tetramer formation (BS3 cross-linking, SDS-PAGE)
# Format: biochemical
# Measurement Setup: 1 μM inhibitor; read-out: % inhibition of PF4 tetramer formation at single concentration of inhibitor
Kind request: treat 20% as inclusive, so inhibition at 1 µM at 20% or higher is Y, anything lower is N.

Record excerpt, results attached:
CC(C(=O)C1C(=O)c2ccc(C(=O)c3ccc4c(c3)C(=O)C(C(=O)C(C)c3ccc(F)cc3)C4=O)cc2C1=O)c1ccc(F)cc1 (stereo not shown) ... N
O=C(O)CCNC(=O)C1C(=O)c2ccc(Oc3ccc4c(c3)C(=O)C(C(=O)NCCC(=O)O)C4=O)cc2C1=O (stereo not shown) ... N
COC(=O)[C@H]1CCCCC1C(=O)C1C(=O)c2ccc(C(=O)c3ccc4c(c3)C(=O)C(C(=O)C3CCCC[C@@H]3C(=O)OC)C4=O)cc2C1=O (stereo in doubt) ... N
O=C(NC1CC1)C1C(=O)c2ccc(C#Cc3ccc4c(c3)C(=O)C(C(=O)NC3CC3)C4=O)cc2C1=O (stereo not shown) ... Y

Please check the record O=C(NCC1CCOC1)C1C(=O)c2ccc(S(=O)(=O)c3ccc4c(c3)C(=O)C(C(=O)NCC3CCOC3)C4=O)cc2C1=O (stereo not shown) and state if its inhibition at 1 µM is at or above 20%.
Y

Please check the record COCCOCCOCCNC(=O)C1C(=O)c2ccc(C(=O)c3ccc4c(c3)C(=O)C(C(=O)NCCOCCOCCOC)C4=O)cc2C1=O (stereo not shown) and state if its inhibition at 1 µM is at or above 20%.
Y

Please check the record CSCCC(=O)C1C(=O)c2ccc(S(=O)(=O)c3ccc4c(c3)C(=O)C(C(=O)CCSC)C4=O)cc2C1=O (stereo not shown) and state if its inhibition at 1 µM is at or above 20%.
N
